All values here come from paper PMC3968128.

Quick list: pIC50 per entry.
Target: HLA A*02:01 class I molecules (Homo sapiens, UniProt P04439, D140Y/D185E/D98H/E176V/E277Q/G131W/G231S/I119V/I121R/I166T/I218V/L300P/L318F/N151K/N90K/P208A/P217A/Q86G/Q94H/R138H/R169H/T345S)
Construct: endogenous in cells; host or cells: JY (EBV-transformed homozygous B cell line)
Experiment: MHC-peptide binding assay, inhibition of binding of radiolabeled standard peptide
Conditions: inhibition of binding of radiolabeled HBV core 18–27 analogue […]; purified MHC from JY cells; six concentrations, three or more independent assays; read-out: Measured affinity IC50
pIC50: −log10 of the molar value. Ends that are not written are not given here.

Seq Text	pIC50
ILIEGVFFA	9.80
ILIEGIFFA	9.82
LLIEGIFFI	9.92
ILIEGIFFV	10.52
